assayName: activity coefficient (dimensionless); of the first substance listed, at infinite dilution; xn = mol fraction of the nth substance listed
conditionDetails: 298.15 K; 101 kPa; Liquid; Chromatography; x1 = 0
valueType: activity coefficient
Give only the figure.

{"compound": "C1CCCCC1 [cyclohexane] + CCCCn1cc[n+](C)c1.COCCOCCOS(=O)(=O)[O-]", "activity coefficient": 34.4}

Briefly, activity coefficient measured for c1ccccc1 [benzene] + CCCCn1cc[n+](C)c1.COCCOCCOS(=O)(=O)[O-] : 2.04

Briefly, activity coefficient measured for Cc1ccccc1 [toluene] + CCCCn1cc[n+](C)c1.COCCOCCOS(=O)(=O)[O-] : 3.72
